- test-protocol: logP by HPLC on reversed-phase column (C 18), EEC Directive 79/831 Annex V.A8
- Type: physicochemical
- run-parameters: C 18, 40° C., 0.1% aqueous formic acid and acetonitrile gradient
reported-metric: LogP

INSERT INTO results (molecule, test_result) VALUES
  ('O=C(c1ccsc1I)N(Cc1ncc(C(F)(F)F)cc1Cl)C1CC1 [Compound 15]', 4.17),
  ('Cc1nc(C(=O)N(Cc2ncc(C(F)(F)F)cc2Cl)C2CC2)c(C)o1 [Compound 22]', 3.11),
  ('Cc1cc(C(=O)N(C2CC2)C(C)c2ncc(C(F)(F)F)cc2Cl)no1 (stereo not shown) [Compound 65]', 3.63),
  ('Cc1cc(C(=O)N(C2CC2)C(C)c2ncc(C(F)(F)F)cc2Cl)nn1C (stereo not shown) [Compound 33]', 3.15),
  ('CCC(c1cc(C(F)(F)F)cc(Cl)n1)N(C(=O)c1c(C)nn(C)c1F)C1CC1 (stereo not shown) [Compound 47]', 2.95),
  ('Cn1cc(C(=O)N(Cc2cc(C(F)(F)F)cc(Cl)n2)C2CC2)c(C(F)F)n1 [Compound 37]', 3.1),
  ('Cc1ncoc1C(=O)N(Cc1ncc(C(F)(F)F)cc1Cl)C1CC1 [Compound 20]', 2.85),
  ('Cc1ncoc1C(=O)N(C1CC1)C(C)c1ncc(C(F)(F)F)cc1Cl (stereo not shown) [Compound 21]', 3.22),
  ('Cc1onc(-c2ccc(Cl)cc2)c1C(=O)N(Cc1ncc(C(F)(F)F)cc1Cl)C1CC1 [Compound 69]', 4.48),
  ('O=C(c1ccco1)N(Cc1ncc(C(F)(F)F)cc1Cl)C1CC1 [Compound 1]', 3.2),
  ('Cc1cc(C(=O)N(Cc2ncc(C(F)(F)F)cc2Cl)C2CC2)no1 [Compound 64]', 3.32),
  ('Cc1ncc(C(=O)N(Cc2ncc(C(F)(F)F)cc2Cl)C2CC2)s1 [Compound 29]', 3.15),
  ('Cc1nc(C(F)F)c(C(=O)N(Cc2ncc(C(F)(F)F)cc2Cl)C2CC2)s1 [Compound 26]', 3.41),
  ('O=C(c1ccno1)N(Cc1ncc(C(F)(F)F)cc1Cl)C1CC1 [Compound 71]', 3.72),
  ('Cc1ccoc1C(=O)N(C1CC1)C(C)c1ncc(C(F)(F)F)cc1Cl (stereo not shown) [Compound 4]', 4.22),
  ('CC(c1ncc(C(F)(F)F)cc1Cl)N(C(=O)c1ccco1)C1CC1 (stereo not shown) [Compound 2]', 3.6),
  ('CC(c1ncc(C(F)(F)F)cc1Cl)N(C(=O)c1cn(C)nc1C(F)(F)F)C1CC1 (stereo not shown) [Compound 42]', 4.01),
  ('Cn1cc(C(=O)N(Cc2ncc(C(F)(F)F)cc2Cl)C2CC2)c(C(F)(F)F)n1 [Compound 41]', 3.26),
  ('Cc1nn(C)c(F)c1C(=O)N(C1CC1)C(C)c1ncc(C(F)(F)F)cc1Cl (stereo not shown) [Compound 46]', 3.67),
  ('CCc1nn(C)c(F)c1C(=O)N(Cc1ncc(C(F)(F)F)cc1Cl)C1CC1 [Compound 59]', 3.11),
  ('CC(c1ncc(C(F)(F)F)cc1Cl)N(C(=O)c1cn(C)nc1C(F)F)C1CC1 (stereo not shown) [Compound 35]', 3.78),
  ('CCn1nc(C)c(C(=O)N(Cc2ncc(C(F)(F)F)cc2Cl)C2CC2)c1F [Compound 58]', 3.15);
